Test system: nude mice, LX-1 lung xenograft intrarenal, tumor weight T/C
Experiment: NCI In Vivo Anticancer Drug Screen. Data for tumor model Human Lung LX-1 Xenograft (intrarenal inoculation) in NU/NU Swiss (nude) mice
Settings: endpoint: mean tumor weight change; dose: 6.25 mg/kg/injection; schedule: Q01DX010 (sc); vehicle: Klucel (hydroxypropylcellulose) (HPC); higher = larger tumour
Results filed as inconclusive are left out.
T/C overview

Look over these answered cases.
• C=C1C(=O)OCC2C(C(=O)O)=CC3C(C)C(C)=CC123 (stereo not drawn) = 109 % of control
• C1CCC2[N-]CC3CCCCC3[N-]CC3CCCCC3[N-]CC3CCCCC3[N-]CC2C1.[Cu] (stereo not drawn) = 100 % of control

Query the reported T/C for nude mice, LX-1 lung xenograft intrarenal, tumor weight T/C; item: CC1CCC(NC(=O)N(CCCl)N=O)CC1 (stereo not drawn)
34 % of control
